- SUBJECT_OF_TEST: Upc2 (UniProt Q12151)
- Sequence: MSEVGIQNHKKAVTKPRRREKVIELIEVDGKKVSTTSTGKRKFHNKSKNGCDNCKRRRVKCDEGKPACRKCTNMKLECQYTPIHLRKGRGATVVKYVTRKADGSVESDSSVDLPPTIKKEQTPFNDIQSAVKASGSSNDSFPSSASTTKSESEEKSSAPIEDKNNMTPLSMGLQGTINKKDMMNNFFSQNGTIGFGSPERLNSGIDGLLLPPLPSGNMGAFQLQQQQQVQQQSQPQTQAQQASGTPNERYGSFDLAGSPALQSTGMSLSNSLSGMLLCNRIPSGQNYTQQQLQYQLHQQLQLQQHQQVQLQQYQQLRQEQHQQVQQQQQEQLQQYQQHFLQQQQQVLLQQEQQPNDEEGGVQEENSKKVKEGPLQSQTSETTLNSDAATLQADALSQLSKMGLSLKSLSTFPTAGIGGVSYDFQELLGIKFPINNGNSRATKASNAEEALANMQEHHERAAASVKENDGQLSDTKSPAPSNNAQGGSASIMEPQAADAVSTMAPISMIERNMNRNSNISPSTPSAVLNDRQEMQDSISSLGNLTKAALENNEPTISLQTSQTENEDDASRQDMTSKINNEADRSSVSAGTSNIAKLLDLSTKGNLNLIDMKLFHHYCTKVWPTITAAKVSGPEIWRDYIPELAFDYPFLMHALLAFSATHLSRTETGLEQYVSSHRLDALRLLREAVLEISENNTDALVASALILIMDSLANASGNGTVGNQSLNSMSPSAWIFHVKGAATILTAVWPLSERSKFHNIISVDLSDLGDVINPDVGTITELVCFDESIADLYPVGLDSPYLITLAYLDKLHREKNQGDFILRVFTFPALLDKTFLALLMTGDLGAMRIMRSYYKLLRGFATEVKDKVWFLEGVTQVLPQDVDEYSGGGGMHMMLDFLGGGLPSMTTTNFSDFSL
- PROTOCOL_NOTES: PBM E-score (8-mer binding enrichment) (E-score (-0.5 to 0.5)); higher = stronger / more preferred TF binding
- CONDITION_CONTEXT: protein concentration: 200 nM; construct: GST-full length
The full ranking holds about 33,000 sequences; the median of “E-score (-0.5 to 0.5)” is about -0.043, and the highest 2% start at about 0.37. Only a selection was taken, and the highest values are over-represented in it overall.
For each record, write down the corresponding PBM E-score.

PBM E-score for Upc2 (UniProt Q12151) with input GCATACGC equals 0.296

Sample CAGTCGGA , system: Upc2 (UniProt Q12151). Its PBM E-score is -0.016

The reported Upc2 (UniProt Q12151) PBM E-score of GAGTCGTA is 0.43

GET /values?item= TCATACGA &system= Upc2 (UniProt Q12151) returns PBM E-score: 0.469

Known value: Upc2 (UniProt Q12151) PBM E-score of the sequence ACATACGT equals 0.239

Hey, Upc2 (UniProt Q12151) data for CAGTCGTA : PBM E-score came out at 0.416

Record for GTAAAGCA under target or system Upc2 (UniProt Q12151): PBM E-score reported as 0.223

Given the sequence CCGTACCA and test system Upc2 (UniProt Q12151), the measured PBM E-score is 0.368

The sequence CGTATCAA on Upc2 (UniProt Q12151): PBM E-score was 0.37

PBM E-score on Upc2 (UniProt Q12151) for GAGTCGGA is -0.0556

PBM E-score value, target or system Upc2 (UniProt Q12151), for CGTATCAC : 0.364

Upc2 (UniProt Q12151) data for CTTAGGCA ; its PBM E-score: -0.361

The reported Upc2 (UniProt Q12151) PBM E-score of AAGTCGTC is 0.121

PBM E-score for Upc2 (UniProt Q12151) with input ATTGTTGG equals -0.153

The measured PBM E-score that TGTATCAA showed for Upc2 (UniProt Q12151) is -0.0549

Here CCAGAGGA was tested on Upc2 (UniProt Q12151), and its PBM E-score came to -0.256

Field PBM E-score (system: Upc2 (UniProt Q12151)) for entry GAGTCGCA = 0.0248

Lab note: sequence CACAGGCG tested on Upc2 (UniProt Q12151); recorded PBM E-score was -0.208

Form field, PBM E-score with Upc2 (UniProt Q12151), item GTTCTCTA : 0.102

// sequence CGGCGCTC , assay Upc2 (UniProt Q12151), PBM E-score value: 0.16

Test item CAGTCGTC ; Upc2 (UniProt Q12151); reported PBM E-score was -0.106

Entry TCTCCTAA : PBM E-score on Upc2 (UniProt Q12151) = -0.00947
